- System: P. aeruginosa 27853
- experimentDescription: MIC assay, P. aeruginosa 27853
- Type: cell-based
- Set-up: unit not given here
- assayConditions: range: complete growth inhibition at higher, viable cells at lower concentration; 20-24 hours at 37° C.
# MIC P aeruginosa 27853 listing for each entry below

Please review the entries below; each comes with its answer.
# molecule, MIC P aeruginosa 27853
measured = [
    ("NCC[C@H](O)C(=O)N[C@@H]1C[C@H](N)[C@@H](O[C@H]2O[C@H](CNCCCc3ccccc3)[C@@H](O)[C@H](O)[C@H]2O)[C@H](O)[C@H]1O[C@H]1O[C@H](CO)[C@@H](O)[C@H](N)[C@H]1O", "2.5-5.0"),
    ("CC(C)NC[C@H]1O[C@H](O[C@@H]2[C@@H](O)[C@H](O[C@H]3O[C@H](CN)[C@@H](O)[C@H](O)[C@H]3O)[C@@H](N)C[C@H]2NC(=O)[C@@H](O)CCN)[C@H](O)[C@@H](N)[C@@H]1O", "10-20"),
    ("[N-]=[N+]=NC[C@H]1O[C@H](O[C@@H]2[C@@H](O)[C@H](O[C@H]3O[C@H](CN)[C@@H](O)[C@H](O)[C@H]3O)[C@@H](N)C[C@H]2NC(=O)[C@@H](O)CCN)[C@H](O)[C@@H](N)[C@@H]1O", "2.5-5.0"),
    ("NCC[C@H](O)C(=O)N[C@@H]1C[C@H](N)[C@@H](O[C@H]2O[C@H](CN)[C@@H](O)[C@H](O)[C@H]2O)[C@H](O)[C@H]1O[C@H]1O[C@H](CO)[C@@H](O)[C@H](N)[C@H]1O [IBIS00404962, Amikacin, reference compound]", "1.25-2.5"),
]

Could you share which MIC P aeruginosa 27853 value was measured for `NCC[C@H](O)C(=O)N[C@@H]1C[C@H](N)[C@@H](O[C@H]2O[C@H](CNCCc3ccccc3)[C@@H](O)[C@H](O)[C@H]2O)[C@H](O)[C@H]1O[C@H]1O[C@H](CO)[C@@H](O)[C@H](N)[C@H]1O` ?
2.5-5.0

* * *

- System: P. aeruginosa 27853
- experimentDescription: MIC assay, P. aeruginosa 27853
- Assay type: cell-based
- Set-up: unit not given here
- assayConditions: range: complete growth inhibition at higher, viable cells at lower concentration; 20-24 hours at 37° C.
experimentalEndpoint: MIC P aeruginosa 27853

// below: answered molecules
# molecule, valueMeasured
data = [
    ("CN(C)CCNCC1OC(OC2C(NC(=O)C(O)CCN)CC(N)C(OC3OC(CN)C(O)C(O)C3O)C2O)C(O)C(N)C1O (stereo not drawn)", "1.25-2.5"),
    ("NC[C@H]1O[C@H](O[C@H]2[C@H](O)[C@@H](O[C@H]3O[C@H](CO)[C@@H](O)[C@H](N)[C@H]3O)[C@H](N)C[C@@H]2N)[C@H](O)[C@@H](O)[C@@H]1O [IBIS00262400, Kanamycin A, reference compound]", "1.25-2.5"),
]

We now examine a further molecule.
Lookup: MIC P aeruginosa 27853 / P. aeruginosa 27853 / `CNC[C@H]1O[C@H](O[C@@H]2[C@@H](O)[C@H](O[C@H]3O[C@H](CN)[C@@H](O)[C@H](O)[C@H]3O)[C@@H](N)C[C@H]2NC(=O)[C@@H](O)CCN)[C@H](O)[C@@H](N)[C@@H]1O`
2.5-5.0
